target: human DOR (Homo sapiens)
Sequence (P41143 whole entry): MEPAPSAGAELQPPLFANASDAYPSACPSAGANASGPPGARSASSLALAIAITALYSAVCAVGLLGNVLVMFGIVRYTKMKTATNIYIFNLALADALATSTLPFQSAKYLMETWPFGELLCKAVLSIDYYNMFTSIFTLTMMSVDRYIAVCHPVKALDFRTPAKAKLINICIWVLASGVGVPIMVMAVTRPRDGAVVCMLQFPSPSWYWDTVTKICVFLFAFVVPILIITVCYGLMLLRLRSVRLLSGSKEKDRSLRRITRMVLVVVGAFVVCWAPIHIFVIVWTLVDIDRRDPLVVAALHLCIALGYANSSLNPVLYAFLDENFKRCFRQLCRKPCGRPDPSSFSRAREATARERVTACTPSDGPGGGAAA
pKi: −log10 of the molar value.

STRUCTURE SMILES: CN1CC[C@]23c4c5ccc(O)c4O[C@H]2CCC[C@@]3(O)[C@H]1C5
SYSTEM NAME: human DOR (Homo sapiens)
pKi: 6.70
//
STRUCTURE SMILES: CN1CC[C@]23c4c5ccc(O)c4O[C@H]2C(=O)CC[C@@]3(OCc2ccccc2)[C@H]1C5
SYSTEM NAME: human DOR (Homo sapiens)
pKi: 8.98
//
STRUCTURE SMILES: CO[C@@]12CCC(=O)[C@@H]3Oc4c(O)ccc5c4[C@@]31CCN(C)[C@@H]2C5
SYSTEM NAME: human DOR (Homo sapiens)
pKi: 8.06
